TEST: plasma Cmax after single dose
Format: in vivo
TEST_PARAMETERS: human, 5 mg single dose, equivalent of 24 ng/ml (Onglyza, 2016), read-out: plasma Cmax, molar equivalent
MEASUREMENT_NAME: Cmax

### Prompt Reported Cmax for N#C[C@@H]1C[C@@H]2C[C@@H]2N1C(=O)[C@@H](N)C12CC3CC(CC(O)(C3)C1)C2 [saxagliptin] : what is it?
### Response ~76 nM
